molecular target: KAT7+JADE1+EAF6+ING5 4 protein complex (Homo sapiens (Human), UniProt O95251); assay: KAT7 JADE1 assay (SAMDI-MS acetylation of H3 1-21 peptide); format: biochemical; details: Morrison equation fit; replicate number in parentheses; read-out: KAT7 JADE1 Ki (nM) (replicate number)
// classify: if (Ki < 7 nM) T else F

> print(dat)
                                    compound                                targetdesc  class
 1  COc1cc2c(NS(=O)(=O)c3c(OC)cccc3OC)noc2cc1Nc1[nH]nc(C)c1C(N)=O  KAT7+JADE1+EAF6+ING5 4 protein complex (Homo sapiens (Human), UniProt O95251)      F
 2  COc1cc2c(NS(=O)(=O)c3c(OC)cc(C4C[C@H](C)CN4C)cc3OC)noc2cc1Nc1cc(C2CC2)n[nH]1 (some centres unmarked)  KAT7+JADE1+EAF6+ING5 4 protein complex (Homo sapiens (Human), UniProt O95251)      T
 3  COc1cc2c(NS(=O)(=O)c3c(OC)cc(C4CCCN(C)C4)cc3OC)noc2cc1Nc1cc(C2CC2)n[nH]1 (single isomer, unassigned) [Example 150]  KAT7+JADE1+EAF6+ING5 4 protein complex (Homo sapiens (Human), UniProt O95251)      T
 4  COc1cc2c(NS(=O)(=O)c3c(OC)cc(-c4cccnc4)cc3OC)noc2cc1Nc1cc(C2CC2)n[nH]1  KAT7+JADE1+EAF6+ING5 4 protein complex (Homo sapiens (Human), UniProt O95251)      T
 5  COc1cc2c(NS(=O)(=O)c3c(OC)cc(C4C[C@H](F)CN4C)cc3OC)noc2cc1Nc1cc(C2CC2)n[nH]1 (some centres unmarked)  KAT7+JADE1+EAF6+ING5 4 protein complex (Homo sapiens (Human), UniProt O95251)      T
 6  COc1cc2c(NS(=O)(=O)c3ccc(C)cc3OCC(F)F)noc2cc1Nc1cc[nH]n1  KAT7+JADE1+EAF6+ING5 4 protein complex (Homo sapiens (Human), UniProt O95251)      F
 7  COc1cc2c(NS(=O)(=O)c3c(OC)cc(C4CN(C)CCC4(F)F)cc3OC)noc2cc1Nc1cc(C2CC2)n[nH]1 (single isomer, unassigned)  KAT7+JADE1+EAF6+ING5 4 protein complex (Homo sapiens (Human), UniProt O95251)      T
 8  COc1cc2c(NS(=O)(=O)c3c(OC)cc(CN4CCC[C@H](F)C4)cc3OC)noc2cc1Nc1cc(C2CC2)n[nH]1 (single isomer, unassigned)  KAT7+JADE1+EAF6+ING5 4 protein complex (Homo sapiens (Human), UniProt O95251)      F
 9  COc1cc2c(NS(=O)(=O)c3c(OC)cc(-c4ncc(N(C)C)cn4)cc3OC)noc2cc1Nc1cc(C2CC2)n[nH]1  KAT7+JADE1+EAF6+ING5 4 protein complex (Homo sapiens (Human), UniProt O95251)      T
10  COc1cc2c(NS(=O)(=O)c3ccc(Cl)cc3OC)noc2cc1Nc1cc[nH]n1  KAT7+JADE1+EAF6+ING5 4 protein complex (Homo sapiens (Human), UniProt O95251)      F
11  COc1cc2c(NS(=O)(=O)c3c(OC)cc(CN4CCC[C@@H](F)C4)cc3OC)noc2cc1Nc1cc(C2CC2)n[nH]1 (single isomer, unassigned)  KAT7+JADE1+EAF6+ING5 4 protein complex (Homo sapiens (Human), UniProt O95251)      T
12  COc1cc2c(NS(=O)(=O)c3c(OC)cccc3OC)noc2cc1Nc1cc(C)n[nH]1  KAT7+JADE1+EAF6+ING5 4 protein complex (Homo sapiens (Human), UniProt O95251)      F
13  COc1cccc(OC2CCC2)c1S(=O)(=O)Nc1noc2cc(Nc3cc(C4CC4)n[nH]3)c(F)c(OC)c12  KAT7+JADE1+EAF6+ING5 4 protein complex (Homo sapiens (Human), UniProt O95251)      F
14  COc1cc2c(NS(=O)(=O)c3c(OC)cc(CN4CCC[C@H](C)C4)cc3OC)noc2cc1Nc1cc(C2CC2)n[nH]1  KAT7+JADE1+EAF6+ING5 4 protein complex (Homo sapiens (Human), UniProt O95251)      F
15  COc1cc2c(NS(=O)(=O)c3c(OC)cccc3OC)noc2cc1Nc1cc(C2CC(F)(F)C2)[nH]n1  KAT7+JADE1+EAF6+ING5 4 protein complex (Homo sapiens (Human), UniProt O95251)      F
16  COc1cc2c(NS(=O)(=O)c3c(OC)cc(C(C)N4CCOCC4)cc3OC)noc2cc1Nc1cc(C2CC2)n[nH]1 (single isomer, unassigned) [Example 208]  KAT7+JADE1+EAF6+ING5 4 protein complex (Homo sapiens (Human), UniProt O95251)      F
17  COc1cc2c(NS(=O)(=O)c3c(OC)cc(C4CN(C)CCO4)cc3OC)noc2cc1Nc1cc(C2CC2)n[nH]1 (single isomer, unassigned) [Example 152]  KAT7+JADE1+EAF6+ING5 4 protein complex (Homo sapiens (Human), UniProt O95251)      T
18  COc1cc2c(NS(=O)(=O)c3c(OC)cccc3OC)noc2cc1Nc1c(C#N)c(C)nn1C  KAT7+JADE1+EAF6+ING5 4 protein complex (Homo sapiens (Human), UniProt O95251)      F
19  COc1cc2c(NS(=O)(=O)c3c(OC)cc(CN4CC[C@@H](C(F)F)C4)cc3OC)noc2cc1Nc1cc(C2CC2)n[nH]1  KAT7+JADE1+EAF6+ING5 4 protein complex (Homo sapiens (Human), UniProt O95251)      T
20  COc1cc2c(NS(=O)(=O)c3c(OC)cc(C4CN(C)CCO4)cc3OC)noc2cc1Nc1cc(C2CC2)n[nH]1 (single isomer, unassigned) [Example 153]  KAT7+JADE1+EAF6+ING5 4 protein complex (Homo sapiens (Human), UniProt O95251)      T
21  COc1cc2c(NS(=O)(=O)c3c(OC)cc(-c4cnn(C)c4)cc3OC)noc2cc1Nc1cc(C2CC2)n[nH]1  KAT7+JADE1+EAF6+ING5 4 protein complex (Homo sapiens (Human), UniProt O95251)      F
22  COc1cc(F)c(F)cc1S(=O)(=O)Nc1noc2cc(Nc3cc(C4CC4)n[nH]3)c(F)c(OC)c12  KAT7+JADE1+EAF6+ING5 4 protein complex (Homo sapiens (Human), UniProt O95251)      F
23  COc1cc2c(NS(=O)(=O)c3c(OC)cc(C4COCCN4C)cc3OC)noc2cc1Nc1cc(C2CC2)[nH]n1 (single isomer, unassigned) [Example 180]  KAT7+JADE1+EAF6+ING5 4 protein complex (Homo sapiens (Human), UniProt O95251)      T
24  COc1cc2c(NS(=O)(=O)c3c(OC)cccc3OC)noc2cc1Nc1cc(C2CC2)n(C)n1  KAT7+JADE1+EAF6+ING5 4 protein complex (Homo sapiens (Human), UniProt O95251)      F
25  COc1cc2c(NS(=O)(=O)c3c(OC)cc(CN4CCC(C(F)(F)F)C4)cc3OC)noc2cc1Nc1cc(C2CC2)n[nH]1 (centres unmarked)  KAT7+JADE1+EAF6+ING5 4 protein complex (Homo sapiens (Human), UniProt O95251)      T

###

molecular target: UniProt:Q92993; test: KAT5 assay (SAMDI-MS acetylation of H4 1-21 peptide); format: biochemical; details: Morrison equation fit; replicate number in parentheses; read-out: KAT5 Ki (nM) (replicate number)
readoutLabel: Ki (nM)

> print(dat)
                                   molecule  readoutlabel  reportedresult
1  COc1cc2c(NS(=O)(=O)c3c(OC)cc(C4COCC(C)(C)O4)cc3OC)noc2cc1Nc1cc(C2CC2)n[nH]1 (single isomer, unassigned)            Ki            60.7
2  CCOc1ccccc1S(=O)(=O)Nc1noc2cc(Nc3cc(C(C)C)[nH]n3)c(OC)cc12            Ki             436
3  COc1cc2c(NS(=O)(=O)c3c(OC)cc(C4CCCCO4)cc3OC)noc2cc1Nc1cc(C2CC2)n[nH]1 (single isomer, unassigned)            Ki            44.3
4  COc1cc2c(NS(=O)(=O)c3c(OC)cccc3OC)noc2cc1Nc1cc[nH]n1            Ki             138

###

molecular target: KAT5 Full length enzyme (Homo sapiens (Human)); experiment: KAT5 assay (SAMDI-MS acetylation of H4 1-21 peptide); type: biochemical; settings: Morrison equation fit; replicate number in parentheses; read-out: KAT5 Ki (nM) (replicate number)
Sequence (Q92993 whole entry): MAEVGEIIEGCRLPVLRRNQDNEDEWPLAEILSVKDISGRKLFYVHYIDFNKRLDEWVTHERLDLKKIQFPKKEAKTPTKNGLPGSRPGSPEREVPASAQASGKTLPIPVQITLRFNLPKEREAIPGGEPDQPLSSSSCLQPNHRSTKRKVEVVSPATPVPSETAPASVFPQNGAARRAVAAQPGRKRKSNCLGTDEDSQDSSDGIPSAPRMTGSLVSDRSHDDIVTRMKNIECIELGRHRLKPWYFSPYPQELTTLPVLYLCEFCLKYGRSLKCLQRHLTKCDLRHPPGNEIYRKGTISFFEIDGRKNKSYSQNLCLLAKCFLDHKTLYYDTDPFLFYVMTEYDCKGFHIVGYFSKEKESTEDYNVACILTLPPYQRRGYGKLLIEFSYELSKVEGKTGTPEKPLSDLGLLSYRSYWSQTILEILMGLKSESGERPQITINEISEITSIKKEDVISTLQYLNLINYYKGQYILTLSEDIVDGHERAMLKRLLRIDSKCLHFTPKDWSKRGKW
readoutLabel: Ki (nM)

> print(dat)
                                    molecule  reportedresult
 1  COc1cc(F)c(F)cc1S(=O)(=O)Nc1noc2cc(Nc3cc(C4CC4)n[nH]3)c(F)c(OC)c12 [Example 100]            1060
 2  COc1cc2c(NS(=O)(=O)c3c(OC)cc([C@H]4CCCO4)cc3OC)noc2cc1Nc1cc(C2CC2)n[nH]1 [Example 141]             134
 3  COc1cc2c(NS(=O)(=O)c3c(OC)cccc3OC)noc2cc1Nc1cc2n(n1)CC[C@@H]2C (single isomer, unassigned) [Example 89]             168
 4  CCc1cc(Nc2cc3onc(NS(=O)(=O)c4cccc(Oc5ccc(C)cc5)c4)c3cc2OC)n[nH]1 [Example 126]            5040
 5  CCc1cc(Nc2cc3onc(NS(=O)(=O)c4cccc(Oc5ccc(F)cc5)c4)c3cc2OC)n[nH]1 [Example 128]            7830
 6  CCc1cc(Nc2cc3onc(NS(=O)(=O)c4c(OC)cccc4OC)c3c(OC)c2F)[nH]n1 [Example 72]            1010
 7  CCOc1cccc(OC)c1S(=O)(=O)Nc1noc2cc(Nc3cc(C)[nH]n3)c(OC)cc12 [Example 99]             388
 8  CCn1nc(Nc2cc3onc(NS(=O)(=O)c4c(OC)cccc4OC)c3cc2OC)cc1C1CC1 [Example 113]           50000
 9  COc1cccc(OC)c1S(=O)(=O)Nc1noc2cc(Nc3ncccn3)cc(OC)c12 [Example 20]            9380
10  CCc1cc(Nc2cc3onc(NS(=O)(=O)c4cc(F)ccc4Br)c3cc2OC)n[nH]1 [Example 135]            3080
11  COc1cc2c(NS(=O)(=O)c3c(OC)cc(-c4ccn(C)n4)cc3OC)noc2cc1Nc1cc(C2CC2)n[nH]1 [Example 122]            45.3
12  COc1cccc(OC)c1S(=O)(=O)Nc1noc2cc(Nc3ccon3)cc(OC)c12 [Example 16]            1650
13  COc1cc2c(NS(=O)(=O)c3c(OC)cc(-c4cscn4)cc3OC)noc2cc1Nc1cc(C2CC2)n[nH]1 [Example 121]             106
14  COc1cc2c(NS(=O)(=O)c3c(OC)cc(C4CN(C)CCO4)cc3OC)noc2cc1Nc1cc(C2CC2)n[nH]1 (single isomer, unassigned) [Example 152]             105
15  COc1cc2c(NS(=O)(=O)c3c(OC)cccc3OC)noc2cc1Nc1cc2n(n1)CCC21CC1 [Example 112]             689
